subject_of_test: human LTA4 hydrolase (Homo sapiens, UniProt P09960)
Sequence (P09960 whole entry): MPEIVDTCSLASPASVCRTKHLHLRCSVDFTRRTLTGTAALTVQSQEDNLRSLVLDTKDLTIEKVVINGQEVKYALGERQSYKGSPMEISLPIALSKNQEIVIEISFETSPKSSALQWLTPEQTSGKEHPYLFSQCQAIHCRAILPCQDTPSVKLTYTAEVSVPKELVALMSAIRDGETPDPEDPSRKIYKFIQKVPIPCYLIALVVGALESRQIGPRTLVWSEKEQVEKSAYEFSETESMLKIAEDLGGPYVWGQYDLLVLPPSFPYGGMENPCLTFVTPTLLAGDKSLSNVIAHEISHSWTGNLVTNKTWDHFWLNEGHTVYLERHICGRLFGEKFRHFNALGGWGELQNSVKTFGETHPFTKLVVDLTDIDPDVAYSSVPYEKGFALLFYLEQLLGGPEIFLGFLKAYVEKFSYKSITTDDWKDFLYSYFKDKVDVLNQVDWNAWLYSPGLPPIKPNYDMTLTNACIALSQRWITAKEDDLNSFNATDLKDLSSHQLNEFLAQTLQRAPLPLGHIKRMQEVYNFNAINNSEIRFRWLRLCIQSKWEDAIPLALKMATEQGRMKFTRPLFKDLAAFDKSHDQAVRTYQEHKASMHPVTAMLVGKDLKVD
measured_parameter: IC50 (pM)

{"molecule": "O=C1CCC2(CCN(Cc3ccc4cc(Oc5ccc(-c6ccn[nH]6)cn5)ccc4n3)CC2)N1", "measured_parameter": "IC50", "result_number": 1100}
{"molecule": "CC1(NC(=O)CO)CCN(Cc2ccc3cc(Oc4ccc(-c5ccn[nH]5)cn4)ccc3n2)CC1", "measured_parameter": "IC50", "result_number": 1600}
{"molecule": "CC1CCN(Cc2nc3cc(Oc4ccc(-c5ccn[nH]5)cc4)ccc3[nH]2)CC1", "measured_parameter": "IC50", "result_number": 170}
{"molecule": "CN(Cc1nc2cc(Oc3ccc(-c4ccn[nH]4)cc3)ccc2[nH]1)[C@H]1CCCC[C@@H]1O", "measured_parameter": "IC50", "result_number": 220}
{"molecule": "CC(C)C(=O)N1CCN(Cc2ccc3cc(Oc4ccc(-c5ccn[nH]5)cn4)ccc3n2)CC1", "measured_parameter": "IC50", "result_number": 570}
{"molecule": "CCN(Cc1nc2cc(Oc3ccc(-c4ccn[nH]4)cc3)ccc2[nH]1)C(=O)C1CC1", "measured_parameter": "IC50", "result_number": 430}
{"molecule": "O=C1CC[C@H](Oc2ccc3cc(Oc4ccc(-c5ccn[nH]5)cc4)ccc3n2)CN1", "measured_parameter": "IC50", "result_number": 4200}
{"molecule": "CC(=O)N1CC2CCC(C1)N2Cc1ccc2cc(Oc3ccc(-c4ccn[nH]4)cn3)ccc2n1", "measured_parameter": "IC50", "result_number": 330}
{"molecule": "OC(C1CCN(Cc2nc3cc(Oc4ccc(-c5ccn[nH]5)cc4)ccc3[nH]2)CC1)C(F)(F)F (stereo not drawn)", "measured_parameter": "IC50", "result_number": 140}
{"molecule": "NC(=O)N1CCN(Cc2ccc3cc(Oc4ccc(-c5ccn[nH]5)cn4)ccc3n2)CC1", "measured_parameter": "IC50", "result_number": 3900}
{"molecule": "CN(C)CCn1ncc2cc(Oc3ccc(-c4ccn[nH]4)cc3)ccc21", "measured_parameter": "IC50", "result_number": 610}
{"molecule": "c1cc(-c2ccc(Oc3ccc4c(c3)OC(CNCC3CCOCC3)C4)cc2)[nH]n1 (stereo not drawn)", "measured_parameter": "IC50", "result_number": 450}
{"molecule": "O=C(CO)N1C[C@H]2C[C@@H]1CN2Cc1ccc2cc(Oc3ccc(-c4ccn[nH]4)cn3)ccc2n1", "measured_parameter": "IC50", "result_number": 400}
{"molecule": "c1cc(-c2ccc(Oc3ccc4cc(CN5CCCC5)oc4c3)nc2)[nH]n1", "measured_parameter": "IC50", "result_number": 680}
{"molecule": "CN(Cc1nc2cc(Oc3ccc(-c4ccn[nH]4)cc3)ccc2[nH]1)CC1CCCO1 (stereo not drawn)", "measured_parameter": "IC50", "result_number": 240}
{"molecule": "CC(=O)N1CCN(CCn2ncc3cc(Oc4ccc(-c5ccn[nH]5)cn4)ccc32)CC1", "measured_parameter": "IC50", "result_number": 1300}
{"molecule": "CCNCc1nc2cc(Oc3ccc(-c4ccn[nH]4)cc3)ccc2[nH]1", "measured_parameter": "IC50", "result_number": 180}
{"molecule": "c1cc(-c2ccc(Oc3ccc4[nH]c(CNC[C@@H]5CCCO5)nc4c3)cc2)[nH]n1", "measured_parameter": "IC50", "result_number": 420}
{"molecule": "O=S1(=O)CCN(CCn2cc3cc(Oc4ccc(-c5ccn[nH]5)cc4)ccc3n2)CC1", "measured_parameter": "IC50", "result_number": 320}
{"molecule": "CC1(O)CN(Cc2ccc3cc(Oc4ccc(-c5ccn[nH]5)cn4)ccc3n2)C1", "measured_parameter": "IC50", "result_number": 650}
{"molecule": "O=C1CC[C@@H](COc2nccc3cc(Oc4ccc(-c5ccn[nH]5)cc4)ccc23)N1", "measured_parameter": "IC50", "result_number": 20000}
{"molecule": "CNCc1ccc2cc(Oc3ccc(-c4ccn[nH]4)cn3)ccc2n1", "measured_parameter": "IC50", "result_number": 500}
{"molecule": "CC(=O)NC1CC2CCC(C1)N2Cc1ccc2cc(Oc3ccc(-c4cc[nH]n4)cn3)ccc2n1 (stereo not drawn)", "measured_parameter": "IC50", "result_number": 610}
{"molecule": "O=C(N1CCN(Cc2ccc3cc(Oc4ccc(-c5ccn[nH]5)cc4)ccc3n2)CC1)C1(O)CC1", "measured_parameter": "IC50", "result_number": 2400}
{"molecule": "CC(=O)NCC1CCN(CC2Cc3ccc(Oc4ccc(-c5ccn[nH]5)cn4)cc3O2)CC1 (stereo not drawn)", "measured_parameter": "IC50", "result_number": 740}
{"molecule": "CC(=O)N1CCCN(CCc2coc3cc(Oc4ccc(-c5ccn[nH]5)cn4)ccc23)CC1", "measured_parameter": "IC50", "result_number": 280}
{"molecule": "c1cc(-c2ccc(Oc3ccc4[nH]c(CN5CCSCC5)nc4c3)cc2)[nH]n1", "measured_parameter": "IC50", "result_number": 180}
{"molecule": "O=C(C1CCN(CC2Cc3ccc(Oc4ccc(-c5ccn[nH]5)cc4)cc3O2)CC1)N1CCOCC1 (stereo not drawn)", "measured_parameter": "IC50", "result_number": 310}
{"molecule": "COCC(=O)N1CCN(Cc2ccc3cc(Oc4ccc(-c5ccn[nH]5)cn4)ccc3n2)CC1", "measured_parameter": "IC50", "result_number": 870}
{"molecule": "OCCCn1ncc2cc(Oc3ccc(-c4ccn[nH]4)cc3)ccc21", "measured_parameter": "IC50", "result_number": 7000}
{"molecule": "NC(=O)C1CCN(CC2Cc3ccc(Oc4ccc(-c5ccn[nH]5)cc4)cc3O2)CC1 (stereo not drawn)", "measured_parameter": "IC50", "result_number": 640}
{"molecule": "c1cc(-c2ccc(Oc3ccc4nc(CN5CCCC6(COC6)C5)ccc4c3)nc2)[nH]n1", "measured_parameter": "IC50", "result_number": 2100}
{"molecule": "C[C@@H](NCc1ccc2cc(Oc3ccc(-c4ccn[nH]4)cn3)ccc2n1)C(N)=O", "measured_parameter": "IC50", "result_number": 5700}
